# experimental-conditions: in ethyl acetate, 293.15 K
measured-parameter: solubility (mole fraction)
Reply: number alone, nothing else.

What does the data say about its solubility (mole fraction)? Entry: CCCCN(CCCC)c1ccc(C(=O)c2ccccc2C(=O)O)c(O)c1
0.00606

###

# experimental-conditions: in ethyl acetate, 283.15 K
measured-parameter: solubility (mole fraction)
Reply: number alone, nothing else.

What does the data say about its solubility (mole fraction)? Entry: CCCCN(CCCC)c1ccc(C(=O)c2ccccc2C(=O)O)c(O)c1
0.0043

###

# experimental-conditions: in ethanol, 298.15 K
measured-parameter: solubility (mole fraction)

What does the data say about its solubility (mole fraction)? Entry: CCCCN(CCCC)c1ccc(C(=O)c2ccccc2C(=O)O)c(O)c1
0.00422
